Assay: in vivo
Conditions: rat, sc
Threshold 200 mg/kg. LD50 below it: T. LD50 at it or above: F.

> print(dat)
                                   molecule  cat
1  CCC(=O)OCCCOc1ccc2c(c1)C1(CC)CCN(CC3CC3)C(C2)C1C (stereo not drawn)    F

query: Lab note: LD50 threshold 200 mg/kg. Does this molecule come in strictly under it? CCC12CCN(CC3CC3)C(Cc3ccc(OCCCOC(C)=O)cc31)C2C (stereo not drawn)
result: F

query: Same read-out for CCOC(=O)C1(c2ccccc2)CCN(C)CC1 [Pethidine, reference compound] ?
result: T

query: Entry to check: CC(C)=CCN1CCC2(C)c3cc(O)ccc3CC1C2C (stereo not drawn) [Pentazocine, reference compound]
result: T

query: For CCC12CCN(CC3CC3)C(Cc3ccc(OCCCCOC(C)=O)cc31)C2C (stereo not drawn) then?
result: F

query: Query CCC12CCN(CC3CC3)C(Cc3ccc(OCCCOC(=O)C(C)(C)C)cc31)C2C (stereo not drawn) next
result: F

query: Same read-out for CCC12CCN(CC3CC3)C(Cc3ccc(OCCCCOC(=O)C(C)C)cc31)C2C (stereo not drawn) [Example 10b] ?
result: F

query: CCC(=O)OCCCCOc1ccc2c(c1)C1(CC)CCN(CC3CC3)C(C2)C1C (stereo not drawn) [Example 10a] ?
result: F
